Listing of recorded Kd by entry.
- Assay target: T1, rat CD47 (rat, UniProt P97829 19-140, limits assumed)
- T1 sequence (looked up): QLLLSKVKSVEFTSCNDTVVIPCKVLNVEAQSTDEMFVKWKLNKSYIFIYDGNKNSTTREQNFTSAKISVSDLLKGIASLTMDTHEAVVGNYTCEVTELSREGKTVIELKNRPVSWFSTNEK
- Protocol description: SPR (Biacore T100 and ProteOn XPR36)
Enter the number, and then the unit.

Reported Kd for SIRP-α D1 variant polypeptide of SEQ ID NO: 209 (receptor) EEELQIIQPDKSVLVAAGETATLRCTITSLYPVGPIQWFRGAGPGRELIYNQRDGPFPRVTTVSDTTKRNNMDFSIRIGAITPADAGTYYCVKFRKGIPDDVEFKSGAGTELSVRAKPS : what is it?
2.26 nM

Reported Kd for SIRP-α D1 variant polypeptide of SEQ ID NO: 206 (receptor) EEELQIIQPDKSVLVAAGETATLRCTITSLRPVGPIQWFRGAGPGRELIYNQRDGPFPRVTTVSDTTKRNNMDFSIRIGAITPADAGTYYCVKFRKGIPDDVEFKSGAGTELSVRAKPS : what is it?
1.49 nM

Reported Kd for SIRP-α D1 variant polypeptide of SEQ ID NO: 208 (receptor) EEELQIIQPDKSVLVAAGETATLRCTITSLYPVGPIQWFRGAGPGRELIYNQREGPFPRVTTVSDTTKRNNMDFSIRIGAITPADAGTYYCVKFRKGIPDDVEFKSGAGTELSVRAKPS : what is it?
5.17 nM

Reported Kd for SIRP-α D1 variant polypeptide of SEQ ID NO: 207 (receptor) EEELQIIQPDKSVLVAAGETATLRCTITSLYPVGPIQWFRGAGPGRELIYNQRDGPFPRVTTVSDTTKRNNMDFSIRIGAITPADAGTYYCVKFRKGSPDDVEFKSGAGTELSVRAKPS : what is it?
5.9 nM

Reported Kd for SIRP-α D1 variant polypeptide of SEQ ID NO: 199 (receptor) EEELQIIQPDKSVLVAAGETATLRCTITSLFPVGPIQWFRGAGPGRELIYNQRDGPFPRVTTVSDTTKRNNMDFSIRIGAITPADAGTYYCVKFRKGSPDDVEFKSGAGTELSVRAKPS : what is it?
10.7 nM

Reported Kd for SIRP-α D1 variant polypeptide of SEQ ID NO: 204 (receptor) EEELQIIQPDKSVLVAAGETATLRCTITSLRPVGPIQWFRGAGPGRELIYNQRDGPFPRVTTVSDTTKRNNMDFSIRIGAITPADAGTYYCVKFRKGSPDDVEFKSGAGTELSVRAKPS : what is it?
3.42 nM
